# System: PA-1
# TEST_NAME: Primary qHTS to identify gynecologic anti-cancer compounds using libraries of approved drugs and bioactive compounds (AID 1345084); also: nearly all actives have a fitted effect of over 55% in size; also: potency is read from the fitted curve at half-maximal effect
# STUDY_CONDITIONS: Gynecologic cancer cell panel viability, ATPlite luminescence, 48 h; series mostly up to 57.5 µM
Results filed as inconclusive are left out. Activity calls are given as the source filed them. Calls follow the shape of the dose curve; as a rule, active = well fitted cell-killing curve with a large enough effect; inconclusive = small, poorly fitted or top-dose-only effect, or effect the other way; inactive = flat fitted curve, though single readings scatter.
METRIC_NAME: Potency

Below, each entry is followed by its recorded Potency result.
COMPOUND | METRIC_NAME | MEASURED_VALUE
O=C1CCC(=O)N(O)CCCCCNC(=O)CCC(=O)N(O)CCOCCNC(=O)CCC(=O)N(O)CCCCCN1 | Potency | inactive
O=C(Nc1ccn[nH]1)c1c(F)cccc1F | Potency | inactive
Cc1ccc(S(=O)(=O)Nc2ccccc2N2CCCCC2)s1 | Potency | inactive
NC1CCC(Nc2cc(-c3cccc(NCc4cccc(F)c4)n3)c(Cl)cn2)CC1 (centres undefined) | Potency | 178 nM (active)

List the reported Potency of each compound below.
1. CC(C)(C)c1ccc(S(=O)(=O)NCc2ccc(C(=O)Nc3cccnc3)cc2)cc1
2. CC1(C)CCCC2(C)C=C(C(=O)O)C(O)CC12 (centres undefined)
3. CC(=O)O[C@@H]1[C@@H](O)[C@H](C)O[C@@H](O[C@H]2[C@@H]3C=CO[C@@H](O[C@@H]4O[C@H](CO)[C@@H](O)[C@H](O)[C@H]4O)[C@@H]3[C@@]3(CO)O[C@@H]23)[C@@H]1OC(=O)/C=C/c1ccccc1
4. COc1ccc([C@@]2(O)c3c(ccc(CC=C(C)C)c3O)NC(=O)[C@@H]2OC)cc1
5. CCCCOC(=O)NC(=O)C1c2ccccc2Oc2ccccc21

1: 1120 nM (active); 2: inactive; 3: inactive; 4: inactive; 5: inactive

----------
# System: CRL-7250
# TEST_NAME: Cytotoxic Profiling of Annotated Libraries Using Quantitative High-Throughput Screening (AID 1296008); also: nearly all actives have a fitted effect of over 60% in size; as to max response: % is scaled to controls: 0 for no effect and ±100 for the full control effect
# STUDY_CONDITIONS: Five cell lines viability, CellTiter-Glo ATP luminescence, 48-72 h; stronger effect = lower value
Inconclusive results are not listed.
METRIC_NAME: max response (%)
Numbers only, in %.

COMPOUND | max response / %
CC(C)c1ccc2c(c1)C(=O)CC1[C@@](C)(C(=O)O)CCC[C@]21C (some centres undefined) | 2.88

List the reported max response of each compound below.
1. C=C[C@H]1[C@H](O[C@@H]2O[C@H](CO)[C@@H](O)[C@H](O)[C@H]2O)OC=C(C(=O)OC)[C@H]1C[C@@H]1c2cc(O)c(O)cc2CCN1C(C)=O
2. COC(=O)Cc1cc2c(c([N+](=O)[O-])c1)N(C(=O)CC[C@H](N)C(=O)O)CC2
3. CC(/C=C/C1=CC2=CC(=O)C(C)(O)C(O)C2=CO1)=C\C(C)CCO (centres undefined)

1: -23.5; 2: -4.18; 3: -1.14

----------
# TEST_NAME: Primary qHTS for inhibitors of nuclear receptor binding SET domain protein 2 (NSD2) in an RCH-ACV wild type WT cells (2C) (AID 1645877); also: nearly all actives have a fitted effect of over 70% in size
# STUDY_CONDITIONS: RCH-ACV NSD2 WT (2C) viability, CellTiter-Glo, 72 h; series mostly up to 44.9 µM
Results filed as inconclusive are left out. The source made the active and inactive calls. Calls come from the whole dose curve; as a rule, active = well fitted inhibition curve with a large enough effect; inconclusive = small, poorly fitted or top-dose-only effect; inactive = no such curve, though single readings can be large or run the other way.
Pick from class 1 = active, class 0 = inactive when you respond.

MOLECULE | ANSWER_LABEL
CC/C=C\[C@H](O)[C@H](O)C1=C(C)C(=O)[C@]2(O1)C(=O)N[C@@](OC)(C(=O)c1ccccc1)[C@@H]2O | class 0
C[C@@H]1C[C@@H](O)[C@@]23CO[C@@H](O)[C@@H]2CCC[C@@H]3[C@@]12C[C@@H](c1ccoc1)OC2=O | class 0
OC[C@H]1O[C@@H](O[C@H]2[C@H](OCc3ccccc3)O[C@H](CO[C@@H]3OC[C@@H](O)[C@H](O)[C@H]3O)[C@@H](O)[C@@H]2O)[C@H](O)[C@@H](O)[C@@H]1O | class 0
OC[C@H]1O[C@@H](Oc2ccccc2)[C@H](O)[C@@H](O)[C@@H]1O | class 0
CC1COC2(OC3CC4C5CC(O[C@@H]6O[C@H](C)[C@@H](O[C@@H]7O[C@@H](C)[C@H](O)[C@@H](O)[C@H]7O)[C@H](O)[C@H]6O)C6CC(O)CCC6(C)C5CCC4(C)C3C2C)C(O)C1 (some centres undefined) | class 0
COc1ccc(CNC(=O)c2sc3nc(C)cc(C)c3c2N)cc1 | class 0
NC(=O)c1cccc2cn(-c3ccc(C4CCCNC4)cc3)nc12 (centres undefined) | class 1
CC1(C)CC[C@]2(C(=O)O[C@@H]3O[C@H](CO)[C@@H](O)[C@H](O)[C@H]3O)CC[C@]3(C)C(=CCC4[C@@]5(C)C[C@@H](O)[C@H](O)[C@](C)(C=O)C5CC[C@]43C)[C@@H]2[C@@H]1O (some centres undefined) | class 0
c1cn2cc(-c3ccc4cn[nH]c4c3)nc(Nc3ccc(N4CCOCC4)cc3)c2n1 | class 1
CC1(C)CC[C@]2(C(=O)O)CC[C@]3(C)C(=CCC4[C@@]5(C)CC[C@H](O[C@@H]6O[C@H](C(=O)O)[C@@H](O[C@@H]7OC[C@@H](O)[C@H](O)[C@H]7O)[C@H](O)[C@H]6O)C(C)(C)C5CC[C@]43C)C2C1O (some centres undefined) | class 0

Short answer needed: outcome of this test for `COC(=O)CCc1cc2ccoc2c(OC)c1O[C@@H]1O[C@H](CO)[C@@H](O)[C@H](O)[C@H]1O` ? class 0

Short answer needed: outcome of this test for `C=C1C[C@]23C[C@H]1CC[C@H]2[C@@]1(C)CCC[C@@]2(C)C(=O)O[C@@H]([C@@H]3O)[C@@H]12` ? class 0

Short answer needed: outcome of this test for CC1=CC(=O)CC(C)(C)C1/C=C/C(C)O[C@@H]1O[C@H](CO)[C@@H](O)[C@H](O)[C@H]1O[C@@H]1OC[C@](O)(CO)[C@H]1O (some centres undefined) ? class 0

Short answer needed: outcome of this test for `Cc1onc(C(=O)N2CCN(C(c3ccc(Cl)cc3)c3ccc(Cl)cc3)CC2)c1[N+](=O)[O-]` ? class 1

----------
# TEST_NAME: Primary qHTS for inhibitors of nuclear receptor binding SET domain protein 2 (NSD2) in an isogenic RCH-ACV NSD2 p.E1099K mutant (9B) (AID 1645876); also: nearly all actives have a fitted effect of over 70% in size
# STUDY_CONDITIONS: RCH-ACV (leukaemia line) NSD2 E1099K (9B) viability, CellTiter-Glo, 72 h; series mostly up to 44.9 µM
Records with an inconclusive call do not appear. Active and inactive are the calls of the source. Calls follow the shape of the dose curve; as a rule, active = well fitted inhibition curve with a large enough effect; inconclusive = small, poorly fitted or top-dose-only effect; inactive = flat fitted curve, though single readings scatter.
Pick from active, inactive when you respond.

Worked examples follow.
COMPOUND | ANSWER_LABEL
COc1cccc2cc3c(c(O[C@@H]4O[C@H](CO[C@@H]5O[C@H](CO)[C@@H](O)[C@H](O)[C@H]5O)[C@@H](O)[C@H](O)[C@H]4O)c12)C(C)OC3=O (stereo partly specified) | inactive
CC1CCC2(OC1)OC1CC3C4CC=C5CC(O)CC(O[C@@H]6OC[C@@H](O)[C@H](O)[C@H]6O)C5(C)C4CCC3(C)C1(O)C2C (stereo partly specified) | inactive
CCC1=CC2CN(C1)Cc1c([nH]c3ccccc13)[C@@](C(=O)OC)(c1cc3c(cc1OC)N(C)[C@H]1[C@@](O)(C(=O)OC)[C@H](OC(C)=O)[C@]4(CC)C=CCN5CC[C@]31[C@@H]54)C2 (stereo partly specified) | active
COC(=O)C1=CO[C@@H](O[C@@H]2O[C@H](CO)[C@@H](O)[C@H](O)[C@H]2O)C2C1C(=O)C[C@H]2C (stereo partly specified) | inactive
CC1(C)CC[C@]2(C(=O)O[C@@H]3O[C@H](CO)[C@@H](O)[C@H](O)[C@H]3O)CC[C@]3(C)C(=CCC4[C@@]5(C)C[C@@H](O)[C@H](O)C(C)(C)C5[C@H](O)C[C@]43C)[C@@H]2[C@@H]1O (stereo partly specified) | inactive

# input for lookup
Short answer needed: outcome of this test for `COc1cc(Br)c(S(=O)(=O)Nc2ccc(C(F)(F)F)c(O[C@@H]3CCN(C)C3)c2)cc1OC` ? inactive

----------
# Tested on: CRL-7250
# TEST_NAME: Cytotoxic Profiling of Annotated Libraries Using Quantitative High-Throughput Screening (AID 1296008); also: nearly all actives have a fitted effect of over 60% in size; also: potency is read from the fitted curve at half-maximal effect
# STUDY_CONDITIONS: Five cell lines viability, CellTiter-Glo ATP luminescence, 48-72 h
Results filed as inconclusive are left out. Active and inactive are the calls of the source. Calls follow the shape of the dose curve; as a rule, active = well fitted inhibition curve with a large enough effect; inconclusive = small, poorly fitted or top-dose-only effect; inactive = flat fitted curve, though single readings scatter.

COMPOUND | Potency
CCn1c(=O)c(-c2ccn[nH]2)cc2c(C)nc(N)nc21 | 2.31 µM (active)
COc1ccc2cc(C(C)C(=O)Oc3ccc(C(N)=S)cc3)ccc2c1 (centres undefined) | inactive
CCOC(=O)Nc1cc(-c2ccc(C)c(NS(C)(=O)=O)c2)nn2c(C)nnc12 | 7.31 µM (active)
CC1(C)CC[C@]2(C(=O)O[C@@H]3O[C@H](CO)[C@@H](O)[C@H](O)[C@H]3O)CC[C@]3(C)C(=CCC4[C@@]5(C)C[C@@H](O)[C@H](O)[C@](C)(C=O)C5CC[C@]43C)[C@@H]2[C@@H]1O (some centres undefined) | inactive
